Test system: primary lymphocytic tumor cells taken from patients with chronic lymphatic leukemia (LLC)
procedure-details: Proapoptotic effect by annexin V/propidium iodide flow cytofluorometry, LLC cells
Assay type: cell-based
condition-parameters: Homo sapiens, 24 hours incubation, three experiments in triplicate, read-out: IC50 ± S.D. (concentration required to cause 50% apoptosis), LLC
quantity-kind: pIC50
Please report pIC50 as the negative decimal logarithm of the molar concentration, giving only the number.

Example molecules with recorded pIC50:
INSERT INTO results (smiles_notation, quantity_kind, result_number) VALUES
  ('CCCCCCCOc1ccc(C(=O)CCN2CCN(C)CC2)cc1', 'pIC50', 5.84),
  ('CCCCCCCOc1ccc(C(=O)CCN2CCCCC2)cc1', 'pIC50', 5.52),
  ('CCCCCC[Se]c1ccc(C(=O)CCN2CCN(C)CC2)cc1', 'pIC50', 5.09),
  ('CCCCCCC[Se]c1ccc(C(=O)CCN2CCCCC2)cc1', 'pIC50', 5.77);

stdin: Can you share its pIC50? I mean this molecule: "CCCCCSc1ccc(C(=O)CCN2CCOCC2)cc1"
stdout: 5.07

stdin: Look up pIC50: "CCCCCCCc1ccc(C(=O)CCN2CCOCC2)cc1"
stdout: 6.30

###

Tested on: breast cancer (MDA-MB-231) cells
procedure-details: Proapoptotic effect by flow cytofluorometry, MDA-MB-231 cells
Type: cell-based
condition-parameters: Homo sapiens, 24 hours incubation, three experiments in triplicate, read-out: IC50 ± S.D. (concentration required to cause 50% apoptosis), MDA-MB-231
Binary label based on IC50 with cut-off 2000 nM: below gives yes (1), not below gives no (0).

INSERT INTO assay_data (smiles_notation, qualitative_label) VALUES
  ('CCCCCCC[Se]c1ccc(C(=O)CCN2CCOCC2)cc1', 'yes (1)'),
  ('CCCCCSc1ccc(C(=O)CCN2CCN(C)CC2)cc1', 'no (0)'),
  ('CCCCCCCSc1ccc(C(=O)CCN2CCCCC2)cc1', 'yes (1)'),
  ('CCCCCCC[Se]c1ccc(C(=O)CCN2CCCCC2)cc1', 'yes (1)'),
  ('CCCCCC[Se]c1ccc(C(=O)CCN2CCCCC2)cc1', 'no (0)');

stdin: Is the reported IC50 for "CCCCCCSc1ccc(C(=O)CCN2CCOCC2)cc1" strictly below 2000 nM?
stdout: yes (1)

stdin: Identify whether the compound "CCCCCCOc1ccc(C(=O)CCN2CCCCC2)cc1" records IC50 below 2000 nM.
stdout: no (0)

stdin: API: query returns whether the compound falls strictly under 2000 nM in IC50. Query: "CCCCCCOc1ccc(C(=O)CCN2CCOCC2)cc1"
stdout: yes (1)

stdin: State whether 2000 nM exceeds IC50 recorded for "CCCCCC[Se]c1ccc(C(=O)CCN2CCOCC2)cc1" .
stdout: no (0)

stdin: Identify whether the compound "CCCCCSc1ccc(C(=O)CCN2CCCCC2)cc1" records IC50 below 2000 nM.
stdout: yes (1)

###

Test system: breast cancer (MDA-MB-231) cells
procedure-details: Proapoptotic effect by flow cytofluorometry, MDA-MB-231 cells
Format: cell-based
condition-parameters: Homo sapiens, 24 hours incubation, three experiments in triplicate, read-out: IC50 ± S.D. (concentration required to cause 50% apoptosis), MDA-MB-231
quantity-kind: pIC50
# pIC50 = -log10(concentration in molar units)

Answered examples (4):
INSERT INTO assay_data (compound, result_number) VALUES
  ('CCCCCCCSc1ccc(C(=O)CCN2CCOCC2)cc1 [Compound 8]', 6.18),
  ('CCCCCCSc1ccc(C(=O)CCN2CCCCC2)cc1 [Compound 10]', 5.74),
  ('CCCCCCC[Se]c1ccc(C(=O)CCN2CCN(C)CC2)cc1 [Compound 23]', 5.77),
  ('CCCCCCCOc1ccc(C(=O)CCN2CCCCC2)cc1 [Compound 4]', 5.52);

Turning to the following compound.
stdin: Look up pIC50: CCCCC[Se]c1ccc(C(=O)CCN2CCN(C)CC2)cc1 [Compound 21]
stdout: 4.85

###

System: hepatocarcinoma (HepG2) cells
procedure-details: Proapoptotic effect by flow cytofluorometry, HepG2 cells
Format: cell-based
condition-parameters: Homo sapiens, 24 hours incubation, three experiments in triplicate, read-out: IC50 ± S.D. (concentration required to cause 50% apoptosis), HepG2
Source text: Flow cytofluorometry was used to evaluate the ability of some compounds of the invention to induce cell death, with particular reference to apoptosis. […] Annexin is detected because it is conjugated to a specific fluorochrome, thus allowing to distinguish apoptosis from necrotic phenomena, which are instead measured by the fluorescent dye propidium iodide, which penetrates freely in the cell having a damaged plasmatic membrane. […]
Values of IC50 strictly less than 2000 nM map to true, and values of at least 2000 nM map to false.

INSERT INTO results (smiles_notation, measured_target, qualitative_label) VALUES
  ('CCCCCSc1ccc(C(=O)CCN2CCN(C)CC2)cc1', 'hepatocarcinoma (HepG2) cells', 'false'),
  ('CCCCCCC[Se]c1ccc(C(=O)CCN2CCOCC2)cc1', 'hepatocarcinoma (HepG2) cells', 'true'),
  ('CCCCCCCc1ccc(C(=O)CCN2CCN(C)CC2)cc1', 'hepatocarcinoma (HepG2) cells', 'true'),
  ('CCCCCCCc1ccc(C(=O)CCN2CCOCC2)cc1', 'hepatocarcinoma (HepG2) cells', 'true');

Consider the additional compound presented here.
stdin: Quick check: does "CCCCCCCc1ccc(C(=O)CCN2CCCCC2)cc1" have IC50 under 2000 nM?
stdout: true

###

# pIC50 values compiled below
Tested on: hepatocarcinoma (HepG2) cells
procedure-details: Proapoptotic effect by flow cytofluorometry, HepG2 cells
Assay type: cell-based
condition-parameters: Homo sapiens, 24 hours incubation, three experiments in triplicate, read-out: IC50 ± S.D. (concentration required to cause 50% apoptosis), HepG2
pIC50 here is simply -log10 of the concentration when that concentration is written in mol/L.

Solved entries:
INSERT INTO measurements (smiles_notation, result_number) VALUES
  ('CCCCC[Se]c1ccc(C(=O)CCN2CCCCC2)cc1', 5.12),
  ('CCCCCCSc1ccc(C(=O)CCN2CCOCC2)cc1', 6.31);

stdin: Param item = "CCCCCCOc1ccc(C(=O)CCN2CCCCC2)cc1" ; retrieve measured pIC50.
stdout: 5.51

stdin: Param item = "CCCCCCCOc1ccc(C(=O)CCN2CCOCC2)cc1" ; retrieve measured pIC50.
stdout: 5.81

stdin: Request the reported pIC50 associated with "CCCCCC[Se]c1ccc(C(=O)CCN2CCOCC2)cc1"
stdout: 5.58

###

Tested on: primary lymphocytic tumor cells taken from patients with chronic lymphatic leukemia (LLC)
procedure-details: Proapoptotic effect by annexin V/propidium iodide flow cytofluorometry, LLC cells
Assay type: cell-based
condition-parameters: Homo sapiens, 24 hours incubation, three experiments in triplicate, read-out: IC50 ± S.D. (concentration required to cause 50% apoptosis), LLC
pIC50: −log10 of the molar value.
Decision: pIC50 >= 6 yields YES, all other cases yield NO.

Here's what some known entries look like.
INSERT INTO results (smiles_notation, measured_target, qualitative_label) VALUES
  ('CCCCCCCSc1ccc(C(=O)CCN2CCCCC2)cc1', 'primary lymphocytic tumor cells taken from patients with chronic lymphatic leukemia (LLC)', 'YES'),
  ('CCCCCSc1ccc(C(=O)CCN2CCN(C)CC2)cc1', 'primary lymphocytic tumor cells taken from patients with chronic lymphatic leukemia (LLC)', 'NO'),
  ('CCCCCCC[Se]c1ccc(C(=O)CCN2CCN(C)CC2)cc1', 'primary lymphocytic tumor cells taken from patients with chronic lymphatic leukemia (LLC)', 'NO');

Alright, here's another molecule for you.
stdin: Could you tell me if the measured pIC50 of "CCCCCC[Se]c1ccc(C(=O)CCN2CCCCC2)cc1" reaches 6 or more?
stdout: NO

###

Test system: primary lymphocytic tumor cells taken from patients with chronic lymphatic leukemia (LLC)
procedure-details: Proapoptotic effect by annexin V/propidium iodide flow cytofluorometry, LLC cells
Format: cell-based
condition-parameters: Homo sapiens, 24 hours incubation, three experiments in triplicate, read-out: IC50 ± S.D. (concentration required to cause 50% apoptosis), LLC
With a cut-off of 0.7 µM, any IC50 strictly below it is called label 1; any IC50 meeting it or above is called label 0.

Use the examples below as a reference point.
INSERT INTO measurements (smiles_notation, qualitative_label) VALUES
  ('CCCCCCOc1ccc(C(=O)CCN2CCCCC2)cc1', 'label 0'),
  ('CCCCCCSc1ccc(C(=O)CCN2CCCCC2)cc1', 'label 0'),
  ('CCCCCCC[Se]c1ccc(C(=O)CCN2CCOCC2)cc1', 'label 1'),
  ('CCCCC[Se]c1ccc(C(=O)CCN2CCOCC2)cc1', 'label 0'),
  ('CCCCCCCOc1ccc(C(=O)CCN2CCOCC2)cc1', 'label 0');

stdin: Just wondering, is IC50 of "CCCCC[Se]c1ccc(C(=O)CCN2CCN(C)CC2)cc1" below 0.7 µM?
stdout: label 0

stdin: Take the compound "CCCCC[Se]c1ccc(C(=O)CCN2CCCCC2)cc1" and say whether its IC50 is less than 0.7 µM.
stdout: label 0

stdin: Please state whether IC50 is below 0.7 µM for "CCCCCCCSc1ccc(C(=O)CCN2CCOCC2)cc1"
stdout: label 1

stdin: In plain terms, does "CCCCCCSc1ccc(C(=O)CCN2CCN(C)CC2)cc1" come in under 0.7 µM for IC50?
stdout: label 1

stdin: Confirm or reject: IC50 of "CCCCCCCSc1ccc(C(=O)CCN2CCN(C)CC2)cc1" lies strictly below 0.7 µM
stdout: label 1

stdin: Lab log: compare recorded IC50 with 0.7 µM; is it strictly lower for "CCCCCCCc1ccc(C(=O)CCN2CCCCC2)cc1" ?
stdout: label 0
